compounds and their reported melting point

COMPOUND: O=C(O)CCNC(=O)C(=Cc1cccc2ccccc12)CS
melting point: 133 °C
//
COMPOUND: CCCCCCCN(CCCCCS(=O)c1nc(-c2ccccc2)c(-c2ccccc2)[nH]1)C(=O)Nc1ccc(F)cc1F (centres undefined)
melting point: 77 to 79 °C
//
COMPOUND: CNC(=O)C(=O)CCCCCCSc1ccc(-c2ccccc2)cc1
melting point: 131 to 132 °C
//
COMPOUND: CCN(CC)C(=O)COC(=O)c1cc(S(N)(=O)=O)c(Cl)cc1NCc1ccco1
melting point: 135 to 136 °C
//
COMPOUND: N#Cc1c(Br)c(Br)n(O)c1-c1ccc(Cl)cc1
melting point: 208 to 209 °C
//
COMPOUND: Cc1cc(OCc2coc(/C=C/c3ccc(C(F)(F)F)cc3)n2)ccc1CS(=O)CCc1ccnn1C (centres undefined)
melting point: 161 to 162 °C
//
COMPOUND: N#Cc1ccc(F)cc1-c1ccc(OCc2ccccc2)cc1
melting point: 94 to 96 °C
//
COMPOUND: CCCCn1c(=O)c(NC(=O)Nc2c(C(C)C)cccc2C(C)C)c(-c2cccc(CCCO)c2)c2cccnc21
melting point: 188 to 189 °C

Then this compound:
Please report the recorded melting point for `COc1nccc(C)c1NC(=O)OC(C)(C)C` . 93 to 95 °C

* * *

TEST_READOUT: melting point

// worked examples, melting point included
COMPOUND: CCCn1c(=O)c2nc(-c3ccc(/C=C/C(=O)OCC)cc3)[nH]c2n(CCC)c1=O
melting point: > 300 °C

COMPOUND: COCN1C(C)=C(C(=O)O)C(c2cccc(Cl)c2Cl)C(C(=O)OCOC(=O)C(C)(C)C)=C1C (single isomer, unassigned; (+))
melting point: 89 to 90 °C

COMPOUND: CC(C)c1csc(COC(=O)NC(C(=O)NC(Cc2ccccc2)CC(O)C(Cc2ccccc2)NC(=O)OCc2cncs2)C(C)C)n1 (stereo not drawn)
melting point: 62 to 64 °C

COMPOUND: CN1CCC2(c3ccccc3)OC2C1 (stereo not drawn)
melting point: 44 to 45 °C

COMPOUND: CC(=O)NC[C@H]1CN(c2ccc(N3C[C@H]4CN(C(=O)c5cc6ccccc6[nH]5)C[C@H]4C3)c(F)c2)C(=O)O1
melting point: 211 °C

Please report the recorded melting point for `CCCCCc1ccccc1C=CC=C1SC(=S)N(CC(=O)O)C1=O` . 203 to 207 °C

Please report the recorded melting point for CN1C(=O)C2(COc3cc4c(cc32)OCCO4)c2c(C(=O)NC3CC3)cccc21 (stereo not drawn) . 127 to 128 °C

Please report the recorded melting point for `Cc1ccc2cccc(OCc3c(Cl)ccc(S(=O)(=O)N(C)Cc4cccc(C(N)=O)c4)c3Cl)c2n1` . 208 °C

Please report the recorded melting point for `COc1ncccc1-c1[nH]c2ccccc2c1C1CCNCC1` . 110 to 115 °C

Please report the recorded melting point for `COc1ccc(-c2cc3ccc(C(=O)O)cc3o2)cc1C(C)(C)C` . 235 °C

* * *

TEST_READOUT: melting point

COMPOUND: CN1CCN(c2cc3c(Br)cccc3c(=O)[nH]2)CC1
TEST_RESULT: 240 to 241 °C

Then this compound:
Please report the recorded melting point for `CS(=O)(=O)c1c(Cl)ccc(C(=O)O)c1Cl` . 158 °C
